The following compounds are listed with their measured TGI values.
- System: EKVX NSCLC
- Assay remarks: NCI tumour cell line growth inhibition, 48 h
Write the number in µM without appending the unit.

compound=COc1cc([C@@H]2C[C@H]2c2cc(SC)n[nH]2)cc(OC)c1OC result=40.2
compound=O=C1C=C(OCCCCl)C(=O)c2c(O)ccc(O)c21 result=3.19

GET /value?item= `COc1ccc(/C=C2\C=C(c3ccccc3)N(CCc3ccccc3)C2=O)cc1OC` &field=TGI returns 54

GET /value?item= CCCCCCCCC(=O)OCC(CS[As](C)C)OC(=O)CCCCCCCC (stereo not drawn) &field=TGI returns 19

GET /value?item= `NCCNCc1c2ccccc2c(CNCCN)c2ccccc12` &field=TGI returns 50.1

GET /value?item= `COc1cc2c(cc1OCCCCOc1cc3c(cc1OC)C(=O)N1CCC[C@H]1C(=O)N3)N=C[C@@H]1CCCN1C2=O` &field=TGI returns 27.6

GET /value?item= `O=C(NCCNCCCNC(=O)c1cc(-c2ccccc2)nc2ccccc12)c1cccc(OCc2ccccc2)c1OCc1ccccc1` &field=TGI returns 3.1

GET /value?item= `C/C(=N\Nc1nc2cccnc2s1)c1ccccn1` &field=TGI returns 5.73

GET /value?item= CC1OC(OC2C(OC3CCC4(C)C(CCC5(C)C4CC=C4C6CC(C)(C)CCC6(C(=O)O)CCC45C)C3(C)CO)OCC(O)C2O)C(O)C(O)C1O (stereo not drawn) &field=TGI returns 40

GET /value?item= `CN1CCN(c2ccc3nc(-c4ccc5nc(-c6ccc(O)cc6)[nH]c5c4)[nH]c3c2)CC1` &field=TGI returns 489

GET /value?item= `CCCCCCCCn1ccc2cc(NC(=O)Cn3cc(CN4CCCCC4)nn3)ccc21` &field=TGI returns 13.9
